test system: Hepatitis C virus; test: Inhibition of HCV subgenomic RNAs replication in human hepatoma cells; assay type: functional, Hepacivirus hominis

>  <compound>
CC(C)(C)NC(=O)N[C@H](C(=O)N1C[C@H]2[C@@H](C1C(=O)N[C@@H](CC1CCC1)B1O[C@@H]3C[C@@H]4C[C@@H](C4(C)C)[C@]3(C)O1)C2(C)C)C(C)(C)C (some centres undefined)

>  <EC90>
> 5 µM

$$$$
>  <compound>
CC[C@H](NC(=O)[C@@H]1[C@@H]2[C@H](CN1C(=O)[C@@H](NC(=O)NC(C)(C)C)C(C)(C)C)C2(C)C)B1O[C@@H]2C[C@@H]3C[C@@H](C3(C)C)[C@]2(C)O1

>  <EC90>
> 5 µM

$$$$
>  <compound>
CN(C[C@@H](NC(=O)N[C@H](C(=O)N1C[C@H]2[C@@H]([C@H]1C(=O)N[C@@H](CC1CCC1)B1O[C@@H]3C[C@@H]4C[C@@H](C4(C)C)[C@]3(C)O1)C2(C)C)C(C)(C)C)C(C)(C)C)S(C)(=O)=O

>  <EC90>
> 5 µM

$$$$
>  <compound>
CC(C)(C)NC(=O)N[C@H](C(=O)N1C[C@H]2[C@@H]([C@H]1C(=O)NC(CC1CCC1)C(=O)C(N)=O)C2(C)C)C(C)(C)C (some centres undefined) [BOCEPREVIR]

>  <EC90>
0.35 µM

$$$$

Source listed as ChEMBL document CHEMBL1139280.
